- Measurement target: T1, 4H3921-AA
- T1 chain: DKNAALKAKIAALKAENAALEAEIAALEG
- Assay details: two-hybrid library CCmax;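 note: natural log of median RNA to DNA barcode read ratio; higher means stronger binding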
- Condition context: mean of both orientations
Endpoint: interaction score
Give your answer as a number; write no unit.

Recorded results for 4 binders are shown here.
{"Binder": "DKNAALEAEIAALEAKIAALEAKNAALKG [4H3112-AA]", "Result number": -1.01}
{"Binder": "DKIAALKAENAALEAKIAALKAEIAALEG [4H2729-AA]", "Result number": -1.21}
{"Binder": "DENAALEAKIAALEAKIAALKAENAALKG [4H1324-AA]", "Result number": -1.15}
{"Binder": "DKNAALEAKIAALEAEIAALKAKNAALEG [4H3343-AA]", "Result number": -1.44}

Moving on to the next binder.
Query :: Returns the measured interaction score for the input binder. Input: DKIAALKAKIAALEAENAALEAKIAALEG [4H2837-AA]
Result :: -1.49

Data provenance: paper PMC10397247
